Recorded values, source patent US20250066383A1.

Here's a batch of molecules along with measured IC50 for PDE7A (Homo sapiens (Human), UniProt Q13946).
MEASURED METRIC: IC50

> print(dat)
                       smiles.representation         result
 1  Cc1nn(CC2CCC2)c2sc(C(=O)N[C@H]3CC[C@H](N4CC(F)(F)C4)CC3)cc12   30 to 100 nM
 2  Cc1nn(CC(C)C)c2sc(C(=O)N[C@H]3CC[C@H](N4CCN(CC(F)F)CC4)CC3)cc12   30 to 100 nM
 3  Cc1nn(CC(C)(C)C)c2sc(C(=O)Nc3ccc(N4CCOCC4)nc3)cc12    10 to 30 nM
 4  COC1CN([C@H]2CC[C@H](NC(=O)c3cc4c(C)nn(CC(C)(C)C)c4s3)CC2)C1        < 10 nM
 5  Cc1nn(CC(C)C)c2sc(C(=O)N[C@H]3CC[C@H](N4CCN(C(=O)N(C)C)CC4)CC3)cc12    10 to 30 nM
 6  CC(=O)N1CCN([C@H]2CC[C@H](NC(=O)c3cc4c(C)nn(CC(C)C)c4s3)CC2)CC1    10 to 30 nM
 7  Cc1nn(CC(C)(C)C)c2sc(C(=O)N[C@H]3CC[C@H](N4CC(OC(F)F)C4)CC3)cc12        < 10 nM
 8  Cc1nn(CC(C)(C)C)c2sc(C(=O)N[C@H]3C[C@H](N4CCOCC4)C3)cc12    10 to 30 nM
 9  Cc1nn(CC(C)C)c2sc(C(=O)N[C@H]3CC[C@H](N4CC(C#N)C4)CC3)cc12    10 to 30 nM
10  Cc1nn(-c2ccccc2Cl)c2sc(C(=O)N[C@H]3CC[C@H](N4CC(OC(F)F)C4)CC3)cc12    10 to 30 nM
11  Cc1nn(-c2ccccn2)c2sc(C(=O)N[C@H]3CC[C@H](N4CCOCC4)CC3)cc12  100 to 500 nM
12  Cc1nn(C2CCC(F)(F)CC2)c2sc(C(=O)N[C@H]3CC[C@H](N4CCOCC4)CC3)cc12    10 to 30 nM
13  Cc1nn(CC(C)(C)C)c2sc(C(=O)Nc3cnc(N4CCOCC4)c(Cl)c3)cc12  100 to 500 nM

----------
# PDE7B (Homo sapiens (Human), UniProt Q9NP56): pIC50 values follow
# Sequence (Q9NP56 whole entry): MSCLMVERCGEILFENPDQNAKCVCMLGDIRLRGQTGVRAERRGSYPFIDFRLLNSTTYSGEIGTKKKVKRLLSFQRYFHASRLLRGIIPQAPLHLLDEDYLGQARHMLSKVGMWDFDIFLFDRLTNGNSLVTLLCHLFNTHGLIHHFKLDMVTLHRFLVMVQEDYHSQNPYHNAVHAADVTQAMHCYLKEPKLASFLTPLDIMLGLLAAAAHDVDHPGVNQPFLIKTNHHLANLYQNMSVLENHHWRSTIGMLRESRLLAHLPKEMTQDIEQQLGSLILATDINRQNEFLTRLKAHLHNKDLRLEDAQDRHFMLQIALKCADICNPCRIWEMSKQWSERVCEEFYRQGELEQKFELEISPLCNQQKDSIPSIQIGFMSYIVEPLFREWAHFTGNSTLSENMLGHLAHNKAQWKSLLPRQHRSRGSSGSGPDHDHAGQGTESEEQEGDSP
pIC50: −log10 of the molar value.
MEASURED METRIC: pIC50

> print(dat)
                                   molecule        result
1  Cc1nn(C2CCC(F)(F)CC2)c2sc(C(=O)N[C@H]3CC[C@H](N4CCN(CC(F)F)CC4)CC3)cc12  7.52 to 8.00
2  CC(=S)N1CCN([C@H]2CC[C@H](NC(=O)c3cc4c(C)nn(CC(C)C)c4s3)CC2)CC1  7.00 to 7.52
3  Cc1nn(C2C[C@@H](C)O[C@@H](C)C2)c2sc(C(=O)N[C@H]3CC[C@H](N4CCN(C(C)C)CC4)CC3)cc12 (some centres unmarked)  5.60 to 6.30
4  Cc1nn(C2CCC(F)(F)CC2)c2sc(C(=O)N[C@H]3C[C@H](N4CCOCC4)C3)cc12  7.52 to 8.00
5  Cc1nn(C2CCC(F)(F)CC2)c2sc(C(=O)N[C@H]3C[C@H](N4CCN(C5CC5)CC4)C3)cc12  7.52 to 8.00
6  Cc1nn(C2CCC(F)(F)CC2)c2sc(C(=O)N[C@H]3CC[C@H](N4CCC(F)(F)C4)CC3)cc12        > 8.00
7  Cc1nn(CC(C)(C)C)c2sc(C(=O)Nc3cnc(N4CCOCC4)c(Cl)c3)cc12  5.60 to 6.30
8  Cc1nn(CC(C)(C)C)c2sc(C(=O)N[C@H]3C[C@H](N4CCN(C5CC5)CC4)C3)cc12  7.00 to 7.52

----------
pIC50: −log10 of the molar value.
Lab note: pIC50 readings collected with PDE7A (Homo sapiens (Human)) for the following molecules.
Sequence (Q13946 whole entry): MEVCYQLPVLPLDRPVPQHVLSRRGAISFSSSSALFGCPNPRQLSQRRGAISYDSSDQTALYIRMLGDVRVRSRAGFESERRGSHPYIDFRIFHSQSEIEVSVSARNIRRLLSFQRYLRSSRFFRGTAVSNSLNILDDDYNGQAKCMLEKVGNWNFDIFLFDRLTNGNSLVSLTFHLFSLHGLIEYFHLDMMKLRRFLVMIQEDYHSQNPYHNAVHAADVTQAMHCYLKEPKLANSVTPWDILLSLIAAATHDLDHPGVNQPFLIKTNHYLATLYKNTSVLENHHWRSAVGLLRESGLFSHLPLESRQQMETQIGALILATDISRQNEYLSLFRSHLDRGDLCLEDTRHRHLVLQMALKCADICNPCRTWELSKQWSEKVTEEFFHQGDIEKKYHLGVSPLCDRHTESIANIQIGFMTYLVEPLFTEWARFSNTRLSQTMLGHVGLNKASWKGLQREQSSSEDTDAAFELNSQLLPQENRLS
MEASURED METRIC: pIC50

> print(dat)
                                   molecule  measured.metric        result
1  Cc1nn(-c2ccccc2Cl)c2sc(C(=O)N[C@H]3CC[C@H](N4CCOCC4)CC3)cc12 [Compound I-2]            pIC50  7.52 to 8.00
2  Cc1nn(C2CCC(F)(F)CC2)c2sc(C(=O)N[C@H]3CC[C@H](N4CCC(F)(F)C4)CC3)cc12 [II-26]            pIC50        > 8.00
3  Cc1nn(CC(C)C)c2sc(C(=O)N[C@H]3CC[C@H](N4CCN(C(C)C)CC4)CC3)cc12 [II-5]            pIC50  7.00 to 7.52
4  Cc1nn(C2CCC(F)(F)CC2)c2sc(C(=O)N[C@H]3C[C@H](N4CCN(C5CC5)CC4)C3)cc12 [II-33]            pIC50  7.52 to 8.00
5  Cc1nn(CC(C)(C)C)c2sc(C(=O)N[C@H]3CC[C@H](N4CCC(F)(F)C4)CC3)cc12 [II-27]            pIC50        > 8.00
6  Cc1nn(CC(C)C)c2sc(C(=O)N[C@H]3CC[C@H](N4CCN(C5CC5)CC4)CC3)cc12 [II-6]            pIC50  7.52 to 8.00
7  Cc1nn(CC(C)C)c2sc(C(=O)N[C@H]3CC[C@H](N4CC(F)(F)C4)CC3)cc12 [II-4]            pIC50  7.52 to 8.00
8  Cc1nn(CC(C)(C)C)c2sc(C(=O)N[C@H]3CC[C@H](N4CCOCC4)CC3)cc12 [II-32]            pIC50        > 8.00

----------
What follows is a collection of IC50 values obtained with UniProt:Q13946.
MEASURED METRIC: IC50

> print(dat)
                                   molecule         result
1  Cc1nn(C2CCC(F)(F)CC2)c2sc(C(=O)N[C@H]3CC[C@H](N4CCN(CC(F)(F)F)CC4)CC3)cc12 [II-12]        < 10 nM
2  Cc1nn(CC(C)(C)C)c2sc(C(=O)N[C@H]3CC[C@H](N4CCN(CC(F)F)CC4)CC3)cc12 [II-28]    10 to 30 nM
3  Cc1nn(C2CCC(F)(F)CC2)c2sc(C(=O)N[C@H]3CC[C@H](N4CCN(CC(F)F)CC4)CC3)cc12 [II-11]    10 to 30 nM
4  Cc1nn(CC(C)(C)C)c2sc(C(=O)N[C@H]3C[C@H](N4CCN(C5CC5)CC4)C3)cc12 [II-34]    10 to 30 nM
5  Cc1nn(CC(C)(C)C)c2sc(C(=O)N[C@H]3CC[C@H](N4CCN(C(C)C)CC4)CC3)cc12 [II-31]        < 10 nM
6  Cc1nn(C2C[C@@H](C)O[C@@H](C)C2)c2sc(C(=O)N[C@H]3CC[C@H](N4CCN(C(C)C)CC4)CC3)cc12 (stereo partly shown) [II-1]  100 to 500 nM
7  CC(=O)N1CCN([C@H]2CC[C@H](NC(=O)c3cc4c(C)nn(CC(C)(C)C)c4s3)CC2)CC1 [II-37]        < 10 nM

----------
Record set of IC50 for target or system PDE7B (Homo sapiens (Human)).
MEASURED METRIC: IC50

> print(dat)
                       smiles.representation           result
 1  Cc1nn(C2CCC(F)(F)CC2)c2sc(C(=O)N[C@H]3C[C@@H](N4CCC(F)(F)C4)C3)cc12   0.03 to 0.1 µM
 2  CC(=O)N1CCN([C@H]2CC[C@H](NC(=O)c3cc4c(C)nn(CC(C)(C)C)c4s3)CC2)CC1        < 0.01 µM
 3  Cc1nn(CC(C)(C)C)c2sc(C(=O)N[C@H]3CC[C@H](N4CCN(CC(F)F)CC4)CC3)cc12  0.01 to 0.03 µM
 4  Cc1nn(CC(C)(C)C)c2sc(C(=O)N[C@H]3CC[C@H](N4CCC(F)(F)C4)CC3)cc12        < 0.01 µM
 5  Cc1nn(CC2CCC2)c2sc(C(=O)N[C@H]3CC[C@H](N4CC(F)(F)C4)CC3)cc12   0.03 to 0.1 µM
 6  Cc1nn(CC(C)C)c2sc(C(=O)N[C@H]3CC[C@H](N4CCN(C(C)C)CC4)CC3)cc12  0.01 to 0.03 µM
 7  CC(=O)N1CCN([C@H]2CC[C@H](NC(=O)c3cc4c(C)nn(CC(C)C)c4s3)CC2)CC1   0.03 to 0.1 µM
 8  CC(=O)N1CCN([C@H]2C[C@H](NC(=O)c3cc4c(C)nn(-c5ccccc5Cl)c4s3)C2)CC1   0.03 to 0.1 µM
 9  Cc1nn(CC(C)(C)C)c2sc(C(=O)N[C@H]3CC[C@H](N4CCOCC4)CC3)cc12        < 0.01 µM
10  Cc1nn(C2CCC(F)(F)CC2)c2sc(C(=O)N[C@H]3CC[C@H](N4CC(F)(F)C4)CC3)cc12        < 0.01 µM
11  Cc1nn(C2CCC(F)(F)CC2)c2sc(C(=O)N[C@H]3CC[C@H](N4CCN(C(C)C)CC4)CC3)cc12        < 0.01 µM
12  Cc1nn(-c2ccccn2)c2sc(C(=O)N[C@H]3CC[C@H](N4CCOCC4)CC3)cc12    0.1 to 0.5 µM
